test system: IL-6; assay: Cytokine secretion into blood circulation in LPS injected mice, IL-6; type: in vivo, Balb/C female mice; details: 2 mg/kg i.v., LPS 3 mg/kg i.p., plasma 90 minutes after LPS
measurementType: Inhibition of cytokine secretion into blood circulation, IL-6

                                   molecule  valuemeasured
0  CCCCC(C)(C)c1cc(O)c2c(c1)OC1(C)CCCC21 (stereo not drawn)            28%
1  CCCCCCC(C)(C)c1cc(O)c2c(c1)OC1CCCCCC21 (stereo not drawn)            82%
2  CCCCCCC(C)(C)c1cc(O)c2c(c1)OC1C(O)CCCC21 (stereo not drawn)            85%

----------
target: Human CB2 Receptor (Homo sapiens, UniProt P34972); construct: host or cells: Sf9 or HEK-293 cells (membranes); experiment: [35S]GTPγS-binding assay, hCB2; format: biochemical; conditions: GTPγS, Human CB2 Receptor; upper plateau of curve; NB = no binding
Sequence (P34972 whole entry): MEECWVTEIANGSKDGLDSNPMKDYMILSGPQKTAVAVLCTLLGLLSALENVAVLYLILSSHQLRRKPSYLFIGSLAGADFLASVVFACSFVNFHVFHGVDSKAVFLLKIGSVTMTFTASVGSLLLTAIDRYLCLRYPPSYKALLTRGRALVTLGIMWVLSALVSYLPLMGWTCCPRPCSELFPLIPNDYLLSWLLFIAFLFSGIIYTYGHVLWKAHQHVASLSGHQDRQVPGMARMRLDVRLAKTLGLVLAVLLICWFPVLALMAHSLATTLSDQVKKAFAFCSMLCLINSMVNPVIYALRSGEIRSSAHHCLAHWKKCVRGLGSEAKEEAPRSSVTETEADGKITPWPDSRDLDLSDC
Entries and their Emax
measurementType: Emax

>>> print(df.to_string())
                                   compound  valuemeasured
0  CCCCCCC(C)(C)c1cc(O)c2c3c(oc2c1)CC(C)(C)CC3            72%
1  CCCCCCC(C)(C)c1cc(OC(=O)C=CC(=O)O)c2c(c1)OC1CC(C)(C)CCC21 (centres unmarked)            44%
2  CCCCCCC(C)(C)c1cc(O)c2c(c1)OC1C(O)CCCCC21 (centres unmarked) [Compound C7S-2]            26%
3  CCCCCCC(C)(C)c1cc(O)c2c(c1)OC1CC(C)(C)CCC21 (centres unmarked)            43%
4  CCCCCCC(C)(C)c1cc(O)c2c(c1)OC1C(I)CCCCC21 (centres unmarked)            38%

----------
biological target: UniProt P21554; assay: [35S]GTPγS-binding assay, hCB1; settings: NB = no binding
Sequence (P21554 whole entry): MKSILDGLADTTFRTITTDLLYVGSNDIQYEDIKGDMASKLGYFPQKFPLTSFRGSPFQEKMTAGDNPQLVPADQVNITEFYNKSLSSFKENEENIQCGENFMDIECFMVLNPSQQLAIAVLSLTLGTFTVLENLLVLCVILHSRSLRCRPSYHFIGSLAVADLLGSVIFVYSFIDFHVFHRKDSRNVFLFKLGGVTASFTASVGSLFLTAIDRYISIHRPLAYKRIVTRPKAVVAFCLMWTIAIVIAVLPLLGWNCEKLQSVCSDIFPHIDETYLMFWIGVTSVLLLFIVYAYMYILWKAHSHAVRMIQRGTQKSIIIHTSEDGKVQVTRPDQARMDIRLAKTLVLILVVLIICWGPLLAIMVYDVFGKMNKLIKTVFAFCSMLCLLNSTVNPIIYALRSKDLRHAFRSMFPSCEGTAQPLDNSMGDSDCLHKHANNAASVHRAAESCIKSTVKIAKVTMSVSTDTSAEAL
Entries and their log10 of EC50
measurementType: log10 of EC50 (log10 of the value in nM)

                                   compound  valuemeasured
0  CCCCCCC(C)(C)c1cc(O)c2c(c1)OC1C(I)CCCCC21 (centres unmarked) [Compound C7S-26]           1.30
1  CCCCC(C)(C)c1cc(OC(=O)C=CC(=O)O)c2c3c(oc2c1)CCCC3 [Compound C6M-8]          -0.60
2  CCCCCCC(C)(C)c1cc(OC(=O)C=CC(=O)O)c2c(c1)OC1C(I)CCCCC21 (centres unmarked) [Compound C7S-28]           2.34
3  CCCCCCC(C)(C)c1cc(O)c2c(c1)OC1CC(C)(C)CCC21 (centres unmarked) [Compound C6S-17]           3.46
4  CCCCCCC(C)(C)c1cc(O)c2c(c1)OC1C(O)CCCCC21 (single isomer, unassigned) [Compound C7S-29]           1.90

----------
tested on: carrageenan induced inflammatory pain and paw edema; assay: Inflammatory pain and paw edema induced by carrageenan; assay type: in vivo, Male Sprague Dawley rats; settings: 10 mg/kg i.p., 3 hours, thermal stimulus
Entries and their Percent Inhibition of Inflammatory Pain Responses, ΔLT
measurementType: Percent Inhibition of Inflammatory Pain Responses, ΔLT (%)

>>> df
                                   compound                           systemundertest  valuemeasured
0  CCCCCCC(C)(C)c1cc(O)c2c(c1)OC1(C)CCCC21 (stereo not drawn) [Compound C5S-2]  carrageenan induced inflammatory pain and paw edema             43
1  CCCCCCC(C)(C)c1cc(OCC(=O)O)c2c(c1)OC1C(O)CCCCC21 (stereo not drawn) [Compound C7S-10]  carrageenan induced inflammatory pain and paw edema             61
2  CCCCCCC(C)(C)c1cc2c(c(OP(=O)(O)O)c1)C1CCCCC(O)C1O2 (stereo not drawn) [Compound C7S-13]  carrageenan induced inflammatory pain and paw edema              0
3  CCCCCCC(C)(C)c1cc(O)c2c(c1)OC1(C)C(C)CCC21 (stereo not drawn) [Compound C5S-4]  carrageenan induced inflammatory pain and paw edema            100
4  CCCCCCC(C)(C)c1cc(O)c2c(c1)OC1CCCCCC21 (stereo not drawn) [Compound C7S-1]  carrageenan induced inflammatory pain and paw edema              0
5  CCCCC(C)(C)c1cc(O)c2c(c1)OC1CCCCCC21 (stereo not drawn) [Compound C7S-3]  carrageenan induced inflammatory pain and paw edema             46

----------
System: carrageenan induced inflammatory pain and paw edema
Experiment: Inflammatory pain and paw edema induced by carrageenan
Format: in vivo, Male Sprague Dawley rats
Conditions: Rattus norvegicus, ip; 20 mg/kg i.p. (two asterisks), 3 hours, thermal stimulus; read-out: Percent Inhibition of Inflammatory Pain Responses, ΔLT
Experimental: Male Sprague Dawley rats (average body weight 200 g, Harlan, Israel) were transiently sedated by placement on dry ice for the duration of the injections. […] Before induction of inflammatory pain and three hours after injection, the animals reactions to pain stimuli were tested in two systems. The first stimulus was thermal and assessed by the Plantar Test according to Hargreaves, using Ugo Basile Model 7370. […] Finally, the impact on paw edema was assessed. […]
measurementType: inhibition in vivo at 20 mg/kg (%)

In [3]: df
Out[3]:
                                   molecule                           systemundertest  valuemeasured
0  CCCCC(C)(C)c1cc2c(c(OP(=O)(O)O)c1)C1CCCCC1O2 (stereo not shown) [Compound C6S-16]  carrageenan induced inflammatory pain and paw edema             69
1  COC(=O)c1cc(O)c2c(c1)OC1CCCCC21 (stereo not shown) [Compound C6S-21]  carrageenan induced inflammatory pain and paw edema             44
2  CCCCCCC(C)(C)c1cc(OCC(=O)O)c2c(c1)OC1CCCCC21 (stereo not shown) [Compound C6S-18]  carrageenan induced inflammatory pain and paw edema             49
3  CCCCC(C)(C)c1cc(OCC(O)CO)c2c(c1)OC1CCCCC21 (stereo not shown) [Compound C6S-10]  carrageenan induced inflammatory pain and paw edema             50

----------
Entries and their log10(EC50)
molecular target: Human CB2 Receptor (Homo sapiens, UniProt P34972); assay: [35S]GTPγS-binding assay, hCB2; details: GTPγS, Human CB2 Receptor; NB = no binding
measurementType: log10(EC50) (log10 of the value in nM)

>>> print(df.to_string())
                                   compound  measurementtype  valuemeasured
0  CCCCCCC(C)(C)c1cc(OC(=O)C=CC(=O)O)c2c(c1)OC1C(I)CCCCC21 (stereo not drawn)      log10(EC50)           1.20
1  CCCCCCC(C)(C)c1cc(O)c2c(c1)OC1C(I)CCCCC21 (stereo not drawn)      log10(EC50)          -1.15
2  CCCCCCC(C)(C)c1cc(O)c2c(c1)OC1CCCCC(C(=O)O)C21 (stereo not drawn)      log10(EC50)           2.81
3  CC1(C)CCC2c3c(O)cc(C4(CCc5ccccc5)SCCS4)cc3OC2C1 (stereo not drawn)      log10(EC50)           2.26
4  CCCCCCC(C)(C)c1cc(O)c2c(c1)OC1C(O)CCCCC21 (single isomer, unassigned) [Compound C7S-30]      log10(EC50)           3.01
5  CCCCCCC(C)(C)c1cc(O)c2c3c(oc2c1)CC(C)(C)CC3      log10(EC50)           1.40
6  CCCCCCC(C)(C)c1cc(O)c2c(c1)OC1C(O)CCCCC21 (stereo not drawn) [Compound C7S-2]      log10(EC50)           2.36
7  CCCCCCC(C)(C)c1cc(OC(=O)C=CC(=O)O)c2c(c1)OC1CCCCCC21 (stereo not drawn)      log10(EC50)           2.85

----------
tested on: IL-10; assay: Cytokine secretion into blood circulation in LPS injected mice, IL-10; format: in vivo, Balb/C female mice; settings: 2 mg/kg i.v., LPS 3 mg/kg i.p., plasma 90 minutes after LPS
Class Criterion met: Inhibition of cytokine secretion into blood circulation, IL-10 at least 80%. Class Criterion not met: Inhibition of cytokine secretion into blood circulation, IL-10 below 80%.

                                   compound          classname
0  CCCCCCC(C)(C)c1cc(O)c2c(c1)OC1C(O)CCCC21 (stereo not drawn)      Criterion met
1  CCCCC(C)(C)c1cc(O)c2c(c1)OC1(C)CCCC21 (stereo not drawn)  Criterion not met
2  CCCCCCC(C)(C)c1cc(O)c2c(c1)OC1C=CCCC21 (stereo not drawn)  Criterion not met
3  CCCCCCC(C)(C)c1cc(O)c2c(c1)OC1(C)CCCC21 (stereo not drawn)  Criterion not met
